tested on: MCF10A; assay: percent viability (nuclei count relative to siNT); higher = more viable cells; conditions: 20 nM; 72 h
param class (str): category from percent viability; see ranges lo: < 30%; med: ≥ 30% and < 50%; hi: ≥ 50%

{"residue-codes": "UUGGAGGGUGUGGAAGACAUC [hsa-miR-6515-5p]", "group": "lo"}
{"residue-codes": "AACUGGCCUACAAAGUCCCAGU [hsa-miR-193a-3p]", "group": "lo"}
{"residue-codes": "UGUAAACAUCCCCGACUGGAAG [hsa-miR-30d-5p]", "group": "hi"}
{"residue-codes": "UCUGGCUAUCUCACGAGACUGU [hsa-miR-4794]", "group": "med"}
{"residue-codes": "UCGCAGACAGGGACACAUGGAGA [hsa-miR-6767-5p]", "group": "med"}

Note: attention shifts to another entry.
Category of AGAUCGACCGUGUUAUAUUCGC [hsa-miR-369-5p] :
hi

---

system: MCF10A; experiment: percent viability (nuclei count relative to siNT); higher = more viable cells; settings: 20 nM; 72 h
Catalogue of percent viability readings, one per entry.
Lab book: enter the figure in %, no units written.

# count of solved cases: 10
{"residue-codes": "AACCACUUUCUUUGCUCAUCCA [hsa-miR-1255b-2-3p]", "readout-name": "percent viability", "output-unit": "%", "assay-result": 32.1}
{"residue-codes": "CUACAAAGGGAAGCCCUUUC [hsa-miR-520d-5p]", "readout-name": "percent viability", "output-unit": "%", "assay-result": 39.7}
{"residue-codes": "AGACCUGGCCCAGACCUCAGC [hsa-miR-631]", "readout-name": "percent viability", "output-unit": "%", "assay-result": 25.9}
{"residue-codes": "AAAAGCUGGGUUGAGAGGGCAA [hsa-miR-320b]", "readout-name": "percent viability", "output-unit": "%", "assay-result": 59}
{"residue-codes": "CUGCCAAUUCCAUAGGUCACAG [hsa-miR-192-3p]", "readout-name": "percent viability", "output-unit": "%", "assay-result": 62.7}
{"residue-codes": "CUUCUGCCUGCAUUCUACUCCCAG [hsa-miR-6738-3p]", "readout-name": "percent viability", "output-unit": "%", "assay-result": 51.1}
{"residue-codes": "AAGCCCUGUCUCCUCCCAUCU [hsa-miR-6779-3p]", "readout-name": "percent viability", "output-unit": "%", "assay-result": 68.1}
{"residue-codes": "AGAGGUAGGUGUGGAAGAA [hsa-miR-4458]", "readout-name": "percent viability", "output-unit": "%", "assay-result": 42.7}
{"residue-codes": "CCUCUAAAGGGAAGCGCUUUCU [hsa-miR-520f-5p]", "readout-name": "percent viability", "output-unit": "%", "assay-result": 119}
{"residue-codes": "CCUCAAAUGUGGAGCACUAUUCU [hsa-miR-372-5p]", "readout-name": "percent viability", "output-unit": "%", "assay-result": 140}

Consider the sequence ACGCCCUUCCCCCCCUUCUUCA [hsa-miR-1249] . State its measured percent viability.
85.3

Report percent viability for UGGCAGUGUCUUAGCUGGUUGU [hsa-miR-34a-5p]
11.9
